# EXPERIMENTAL SYSTEM: human FXIIa (Homo sapiens, UniProt P00748)
# Sequence (P00748 373-615 limits assumed): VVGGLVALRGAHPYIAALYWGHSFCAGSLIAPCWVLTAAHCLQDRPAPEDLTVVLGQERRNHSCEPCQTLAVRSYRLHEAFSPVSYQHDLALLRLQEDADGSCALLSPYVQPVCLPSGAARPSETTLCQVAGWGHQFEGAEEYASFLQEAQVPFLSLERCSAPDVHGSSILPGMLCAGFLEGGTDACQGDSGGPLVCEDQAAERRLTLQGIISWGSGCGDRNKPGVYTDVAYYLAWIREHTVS
# Sequence (P00748 20-372 partner limits assumed): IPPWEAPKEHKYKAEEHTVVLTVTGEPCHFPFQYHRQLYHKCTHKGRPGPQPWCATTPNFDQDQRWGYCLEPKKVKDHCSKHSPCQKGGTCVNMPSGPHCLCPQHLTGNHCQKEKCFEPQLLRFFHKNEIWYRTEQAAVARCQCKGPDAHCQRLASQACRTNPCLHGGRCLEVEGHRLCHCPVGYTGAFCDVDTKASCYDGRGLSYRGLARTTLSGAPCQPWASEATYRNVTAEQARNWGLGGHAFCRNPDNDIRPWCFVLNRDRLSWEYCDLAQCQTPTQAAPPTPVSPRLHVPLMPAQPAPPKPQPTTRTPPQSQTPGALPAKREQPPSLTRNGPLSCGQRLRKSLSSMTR
# EXPERIMENTAL DETAILS: Direct inhibition of human FXIIa, chromogenic substrate hydrolysis assay
# CONDITION: human FXIIa, pH 7.4, 37 °C
PROPERTY: ΔY (%) efficacy of inhibition

LINE NOTATION: COC(=O)c1nc(N)n(C(=O)c2ccc(Br)cc2)n1
ΔY (%) efficacy of inhibition: 109

LINE NOTATION: COC(=O)c1nc(N)n(C(=O)c2ccccc2)n1
ΔY (%) efficacy of inhibition: 92

LINE NOTATION: COC(=O)c1nc(N)n(C(=O)c2ccccc2Br)n1
ΔY (%) efficacy of inhibition: 76

LINE NOTATION: CCOC(=O)c1nc(N)n(C(=O)c2ccccc2)n1
ΔY (%) efficacy of inhibition: 91

LINE NOTATION: COC(=O)c1nc(N)n(C(=O)c2ccc(F)cc2)n1
ΔY (%) efficacy of inhibition: 74

LINE NOTATION: CC(C)(C)c1ccc(C(=O)n2ncnc2N)cc1
ΔY (%) efficacy of inhibition: 82

Ref: paper PMC10918664
